Origin of measurements: ChEMBL document CHEMBL4043090

Assay: Cytotoxicity against human PBMC assessed as reduction in cell viability by MTS assay
Assay type: cell-based
Details: read-out: TC50 (the source's name)
Parameter CC50: see the listing below.
TEST READOUT: CC50

>>> data_value("CC1=C(c2nc(-c3ccc(C#N)cc3)cs2)C(c2cccnc2Cl)NC(=O)N1 (stereo not given)")
"> 100 µM"
>>> data_value("CC1=C(c2nc(-c3ccc(C#N)cc3)cs2)C(c2ccc(OCc3ccccc3)cc2)NC(=O)N1 (stereo not given)")
"> 100 µM"
>>> data_value("CC1=C(c2nc(-c3ccc(C#N)cc3)cs2)C(c2ccc(Cl)nc2Cl)NC(=O)N1 (stereo not given)")
"99.1 µM"
>>> data_value("CC1=C(c2nc(-c3ccc(C#N)cc3)cs2)C(c2ccc(OC(F)(F)F)cc2)NC(=O)N1 (stereo not given)")
"> 100 µM"
>>> data_value("COc1cccc(C2NC(=O)NC(C)=C2c2nc(-c3ccc(C#N)cc3)cs2)c1 (stereo not given)")
"> 100 µM"

* * *

Assay: Therapeutic index, ratio of TC50 for human MAGI-CCR5 cells to IC50 for HIV-1 Bal infected in MAGI-CCR5 cells
TEST READOUT: TI

>>> data_value("CC1=C(c2nc(-c3ccc(C#N)cc3)cs2)C(c2cc3ccccc3[nH]2)NC(=O)N1 (centres undefined)")
24
>>> data_value("CC1=C(c2nc(-c3ccc(C#N)cc3)cs2)C(c2ccc(Oc3ccccc3)nc2)NC(=O)N1 (centres undefined)")
156
>>> data_value("CC1=C(c2nc(-c3ccc(C#N)cc3)cs2)C(c2ccnc3ccccc23)NC(=O)N1 (centres undefined)")
26
>>> data_value("CC1=C(c2nc(-c3ccc(C#N)cc3)cs2)C(c2ccc(Cl)nc2Cl)NC(=O)N1 (centres undefined)")
116
>>> data_value("CC1=C(c2nc(-c3cccc(C#N)c3)cs2)C(c2cccc(O)c2)NC(=O)N1 (centres undefined)")
6
>>> data_value("COc1ccc(C2NC(=O)NC(C)=C2c2nc(-c3ccc(C#N)cc3)cs2)cc1 (centres undefined)")
88
>>> data_value("CC1=C(c2nc(-c3ccc(C#N)cc3)cs2)C(c2ccc(Oc3ccccc3)cc2)NC(=O)N1 (centres undefined)")
83
>>> data_value("CC1=C(c2nc(-c3ccc(C#N)cc3)cs2)C(c2cccc(O)c2)NC(=O)N1C (centres undefined)")
42
>>> data_value("CC1=C(c2nc(-c3ccc(C#N)cc3)cs2)C(c2ccc(O)cc2)NC(=O)N1 (centres undefined)")
250

* * *

Parameter pIC50: see the listing below.
Test system: Human immunodeficiency virus 1
Format: functional, cell-based
Conditions: Human immunodeficiency virus 1, A17, MAGI-CCR5, 48 h
pIC50: −log10 of the molar value.
TEST READOUT: pIC50

>>> data_value("CC1=C(c2nc(-c3ccc(C#N)cc3)cs2)C(c2ccc(F)nc2)NC(=O)N1 (stereo not given)")
"< 4.00"
>>> data_value("CC1=C(c2nc(-c3ccc(C#N)cc3)cs2)C(c2ccc(O)cc2)NC(=O)N1 (stereo not given)")
4.55
>>> data_value("COc1ccc(C2NC(=O)NC(C)=C2c2nc(-c3ccc(C#N)cc3)cs2)cn1 (stereo not given)")
"< 4.00"
>>> data_value("CC1=C(c2nc(-c3ccc(C#N)cc3)cs2)C(c2ccc(C(F)(F)F)nc2)NC(=O)N1 (stereo not given)")
"< 4.00"
>>> data_value("Cc1ccnc2c1NC(=O)c1cccnc1N2C1CC1 [NEVIRAPINE]")
"< 5.00"

* * *

Parameter CC50 at 48 h: see the listing below.
Experiment: Cytotoxicity against human MAGI-CCR5 cells assessed as reduction in cell viability after 48 hrs by MTS assay
Type: cell-based
Settings: read-out: TC50
TEST READOUT: CC50 at 48 h (µM)

>>> data_value("CC1=C(c2nc(-c3ccc(Cl)cc3)cs2)C(c2cccc(O)c2)NC(=O)N1 (centres undefined)")
55
>>> data_value("CC1=C(c2nc(-c3ccc(F)cc3)cs2)C(c2cccc(O)c2)NC(=O)N1 (centres undefined)")
60

* * *

Assay: Metabolic stability in rat plasma assessed as compound remaining at 100 uM after 1 hr by LC/MS analysis
Type: ADME, cell-free
Details: read-out: Stability
Parameter remaining at 1 h, 100 µM: see the listing below.
TEST READOUT: remaining at 1 h, 100 µM (%)

>>> data_value("CC1=C(c2nc(-c3ccc(C#N)cc3)cs2)C(c2ccc(Cl)nc2)NC(=O)N1 (stereo not given)")
91.7
>>> data_value("CC1=C(c2nc(-c3ccc(C#N)cc3)cs2)C(c2ccc(F)nc2)NC(=O)N1 (stereo not given)")
100
>>> data_value("COc1ccc(C2NC(=O)NC(C)=C2c2nc(-c3ccc(C#N)cc3)cs2)cc1 (stereo not given)")
96
>>> data_value("COc1ccc(C2NC(=O)NC(C)=C2c2nc(-c3ccc(C#N)cc3)cs2)cn1 (stereo not given)")
100
>>> data_value("CC1=C(c2nc(-c3ccc(C#N)cc3)cs2)C(c2cccc(O)c2)NC(=O)N1 (stereo not given)")
88.5

* * *

System: Human immunodeficiency virus 1
Type: functional, cell-based
Conditions: Human immunodeficiency virus 1, A17, MAGI-CCR5, 48 h
TEST READOUT: IC50

>>> data_value("COc1ccc(C2NC(=O)NC(C)=C2c2nc(-c3ccc(C#N)cc3)cs2)cc1 (stereo not drawn)")
"3.4 µM"
>>> data_value("CC1=C(c2nc(-c3ccc(C#N)cc3)cs2)C(c2ccc(Br)nc2)NC(=O)N1 (stereo not drawn)")
"> 100 µM"
>>> data_value("CC1=C(c2nc(-c3ccc(C#N)cc3)cs2)C(c2cc3ccccc3n2C)NC(=O)N1 (stereo not drawn)")
"> 100 µM"

* * *

Assay: Therapeutic index, ratio of TC50 for human MAGI-CCR5 cells to IC50 for HIV-1 NL4-3 infected in MAGI-CCR5 cells
TEST READOUT: TI

>>> data_value("COc1ccc(C2NC(=O)NC(C)=C2c2nc(-c3ccc(C#N)cc3)cs2)cc1 (configuration not stated)")
110
>>> data_value("CC1=C(c2nc(-c3ccc(C#N)cc3)cs2)C(c2ccc(F)nc2)NC(=O)N1 (configuration not stated)")
">91"
>>> data_value("CC1=C(c2nc(-c3ccc(C#N)cc3)cs2)C(c2ccc(O)cc2)NC(=O)N1 (configuration not stated)")
765
>>> data_value("CC1=C(c2nc(-c3ccc(C#N)cc3)cs2)C(c2ccc(Br)nc2)NC(=O)N1 (configuration not stated)")
">200"
>>> data_value("COc1ccc(C2NC(=O)NC(C)=C2c2nc(-c3ccc(C#N)cc3)cs2)cn1 (configuration not stated)")
">313"
>>> data_value("CC1=C(c2nc(-c3ccc(C#N)cc3)cs2)C(c2ccc(C(F)(F)F)nc2)NC(=O)N1 (configuration not stated)")
">116"

* * *

Assay: Therapeutic index, ratio of TC50 for human MAGI-CCR5 cells to IC50 for HIV-1 Bal infected in MAGI-CCR5 cells
Parameter TI: see the listing below.
TEST READOUT: TI

>>> data_value("CC1=C(c2nc(-c3ccc(Br)cc3)cs2)C(c2cccc(O)c2)NC(=O)N1 (stereo not drawn)")
26
>>> data_value("CC1=C(c2nc(-c3ccc(C#N)cc3)cs2)C(c2ccc(OCc3ccccc3)cc2)NC(=O)N1 (stereo not drawn)")
77
>>> data_value("CC1=C(c2nc(-c3cccc(O)c3)cs2)C(c2cccc(O)c2)NC(=O)N1 (stereo not drawn)")
1.3

* * *

Parameter TI: see the listing below.
Test: Therapeutic index, ratio of TC50 for human MAGI-CCR5 cells to IC50 for HIV-1 Bal infected in MAGI-CCR5 cells
TEST READOUT: TI

>>> data_value("CC1=C(c2nc(-c3ccc(F)cc3)cs2)C(c2cccc(O)c2)NC(=O)N1 (stereo not given)")
16
>>> data_value("COc1cccc(C2NC(=O)NC(C)=C2c2nc(-c3ccc(C#N)cc3)cs2)n1 (stereo not given)")
63
>>> data_value("CC1=C(c2nc(-c3ccc(C#N)cc3)cs2)C(c2ccc(C(F)(F)F)nc2)NC(=O)N1 (stereo not given)")
91
>>> data_value("CC1=C(c2nc(-c3ccc(C#N)cc3)cs2)C(c2ccnc(Cl)c2)NC(=O)N1 (stereo not given)")
31
>>> data_value("CC1=C(c2nc(-c3ccc(C#N)cc3)cs2)C(c2ccncc2F)NC(=O)N1 (stereo not given)")
1.6
>>> data_value("CC1=C(c2nc(-c3ccc(Cl)cc3)cs2)C(c2cccc(O)c2)NC(=O)N1 (stereo not given)")
29
>>> data_value("CC1=C(c2nc(-c3ccc(C#N)cc3)cs2)C(c2cccc(O)c2)NC(=O)N1 (stereo not given)")
223
>>> data_value("CC1=C(c2nc(-c3ccc(C#N)cc3)cs2)C(c2cncc(F)c2)NC(=O)N1 (stereo not given)")
143
>>> data_value("CC1=C(c2nc(-c3ccc(C)cc3)cs2)C(c2cccc(O)c2)NC(=O)N1 (stereo not given)")
2
>>> data_value("COc1cccc(C2NC(=O)NC(C)=C2c2nc(-c3ccc(C#N)cc3)cs2)c1 (stereo not given)")
263
